Molecular target: MAGI1_2, Q96QZ7
Sequence (Q96QZ7 456-580): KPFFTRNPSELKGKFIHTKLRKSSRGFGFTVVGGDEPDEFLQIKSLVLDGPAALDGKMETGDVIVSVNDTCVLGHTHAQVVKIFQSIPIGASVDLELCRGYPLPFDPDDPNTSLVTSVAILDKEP
Assay: holdup assay
Design: key: below the threshold = too weak to quantify, mostly under pKd 3.1 to 4
Conditions: plain residues with an end cap or a label only (N-terminal biotin on a linker: ado-ado)
measuredAttribute: pKd

> print(dat)
                           binder   experimentalresult
1    TETASVCTKV [SLC23A1, Q9UHI7]  below the threshold
2      FVHPILQSAV [PRKCA, P17252]                 3.73
3  GFGEERESIL [KIDINS220, Q9ULH0]  below the threshold
4       EDLTKNHDEL [RCN1, Q15293]  below the threshold

Incoming: // pKd lookup, key: QKNKDKEYYV [NRXN3_rs746444206, Q9Y4C0]
Outgoing: below the threshold
